assay: Hepatic metabolic stability (HMS) assay, mouse hepatocytes; conditions: mouse, cryopreserved hepatocytes
metric_name: half-life at 3 μM (min)
Quick note: give the figure in min, leave out the unit.

Exercise: If you can, please state the reported half-life at 3 μM value of O=c1ccc2ccc(O)cc2o1 [Ref. 2, 7-Hydroxycoumarin, reference compound] .
Key: 2.3

###

target: PRMT5/MEP50 (Homo sapiens (Human), UniProt O14744); test: MTase-Glo methyl transferase assay (PRMT5 inhibition); conditions: 50 nM PRMT5/MEP50, 25 μM SAM, 5 μM Histone H4 peptide (1-21), read-out: IC50 for PRMT5 inhibiting
Sequence (O14744 whole entry): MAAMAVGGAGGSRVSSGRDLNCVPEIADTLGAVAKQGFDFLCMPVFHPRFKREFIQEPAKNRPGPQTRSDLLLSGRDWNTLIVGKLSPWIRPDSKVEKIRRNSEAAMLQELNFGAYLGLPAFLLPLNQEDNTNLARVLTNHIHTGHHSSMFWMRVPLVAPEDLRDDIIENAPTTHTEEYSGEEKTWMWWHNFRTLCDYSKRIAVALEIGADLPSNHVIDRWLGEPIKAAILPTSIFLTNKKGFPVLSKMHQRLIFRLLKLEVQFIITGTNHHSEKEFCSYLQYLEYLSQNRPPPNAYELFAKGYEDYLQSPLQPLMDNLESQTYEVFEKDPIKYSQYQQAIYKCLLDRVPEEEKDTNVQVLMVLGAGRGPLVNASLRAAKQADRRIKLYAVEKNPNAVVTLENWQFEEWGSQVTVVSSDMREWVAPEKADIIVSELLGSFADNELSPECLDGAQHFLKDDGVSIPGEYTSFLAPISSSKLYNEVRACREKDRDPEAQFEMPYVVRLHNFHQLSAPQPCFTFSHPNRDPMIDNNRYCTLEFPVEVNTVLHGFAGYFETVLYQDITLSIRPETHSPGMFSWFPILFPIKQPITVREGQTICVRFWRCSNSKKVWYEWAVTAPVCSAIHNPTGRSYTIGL
Sequence (Q9BQA1 whole entry partner): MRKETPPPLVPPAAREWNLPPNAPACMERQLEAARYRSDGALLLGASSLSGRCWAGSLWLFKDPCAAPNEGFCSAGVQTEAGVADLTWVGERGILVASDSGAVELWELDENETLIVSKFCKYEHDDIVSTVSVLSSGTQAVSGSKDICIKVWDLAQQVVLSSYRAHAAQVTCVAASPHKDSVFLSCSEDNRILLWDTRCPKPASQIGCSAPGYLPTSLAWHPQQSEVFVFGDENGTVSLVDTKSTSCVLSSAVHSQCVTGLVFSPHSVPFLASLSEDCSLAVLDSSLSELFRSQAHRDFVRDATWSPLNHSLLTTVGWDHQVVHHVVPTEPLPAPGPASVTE
metric_name: pIC50
As a rule, pIC50 stands for the negative log10 of the concentration, concentration in M.

Exercise: If you can, please state the reported pIC50 value of CN(C(=O)c1cc2c(cn1)nc(N)c1cncn12)C1CC(F)(F)c2cc(C(F)(F)F)ccc21 (stereo not shown) [Compound 27] .
Key: 5.77

Exercise: Entry to check: [2H]C([2H])([2H])N(C(=O)c1ccc2nc(N)c3cncn3c2c1)C1COc2cc(OC(F)F)ccc21 (stereo not shown)
Key: 7.54

Exercise: Entry to check: CN(C(=O)c1cc2c(cn1)nc(N)c1cncn12)C1COc2nc(C(F)(F)F)ccc21 (stereo not shown)
Key: 7.43

Exercise: Entry to check: CN(C(=O)c1ccc2nc(N)c3cncn3c2c1)C1COc2cc(C(F)(F)F)ccc21 (stereo not shown) [Compound 18]
Key: 6.38

###

molecular target: PRMT5/MEP50 (Homo sapiens (Human), UniProt O14744); assay: MTase-Glo methyl transferase assay (PRMT5 inhibition); conditions: 50 nM PRMT5/MEP50, 25 μM SAM, 5 μM Histone H4 peptide (1-21), read-out: IC50 for PRMT5 inhibiting
The reader will find reported IC50 values listed item by item below.
Quick note: give the figure in nM, leave out the unit.

molecule: Cn1ncc(-c2ccc3c(c2)nc(N)c2cncn23)c1-c1c(F)c(Cl)cc(OC2CC2)c1C#N [Compound 2]
metric_name: IC50
units: nM
observed: 45

Exercise: If you can, please state the reported IC50 value of CN(C(=O)c1ccc2nc(N)c3cncn3c2c1)C1COc2cc(C(F)(F)F)ncc21 (stereo not shown) [Compound 32] .
Key: 25

Exercise: Entry to check: CN(C(=O)c1ccc2nc(N)c3cncn3c2c1)C1COc2cc(C(F)(F)F)ccc21 (stereo not shown) [Compound 11]
Key: 51

Exercise: Entry to check: CN(C(=O)c1cc2c(cn1)nc(N)c1cncn12)[C@@H]1COc2cc(C(F)(F)F)ccc21 [Compound 14]
Key: 47

Exercise: Entry to check: CN(C(=O)c1ccc2nc(N)c3cncn3c2c1)C1COc2cc(C(F)(F)F)ccc21 (stereo not shown) [Compound 15]
Key: 16

Exercise: Entry to check: [2H]C([2H])([2H])N(C(=O)c1cc2c(cn1)nc(N)c1cncn12)C1COc2c1ccc(C(F)(F)F)c2F (stereo not shown) [Compound 34]
Key: 70

Exercise: Entry to check: CN(C(=O)c1cc2c(cn1)nc(N)c1cncn12)C1COc2cc(C(F)(F)F)ccc21 (stereo not shown) [Compound 22]
Key: 1150

Exercise: Entry to check: [2H]C([2H])([2H])N(C(=O)c1cc2c(cn1)nc(N)c1cncn12)C1COc2cc(C(F)(F)F)c(F)cc21 (stereo not shown) [Compound 35]
Key: 87

Exercise: Entry to check: CN(C(=O)c1ccc2nc(N)c3cncn3c2c1)[C@@H]1COc2cc(C(F)(F)F)ccc21 [Compound 12]
Key: 26

Cited source: patent US20240262835A1
